Test system: RXRa DBDmut IVT, anti-RXR (DBD mutation: RXRa K156A/R161A, NR concentration 90 nM)
Assay: PBM binding z-score (relative to random genomic background probes); higher = stronger binding; sequences stand for … in GC…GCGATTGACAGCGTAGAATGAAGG
Kindly supply the reported PBM binding z-score values for the records listed here.
Give bare numbers.

- INPUT_SEQUENCE: "CAAACTAGGTCAAAAGGTCAAAGTCCGCTTCCCG"
  ASSAY_SYSTEM: "RXRa DBDmut IVT, anti-RXR (DBD mutation: RXRa K156A/R161A, NR concentration 90 nM)"
  PBM binding z-score: 2.66
- INPUT_SEQUENCE: "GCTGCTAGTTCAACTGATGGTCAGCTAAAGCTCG"
  ASSAY_SYSTEM: "RXRa DBDmut IVT, anti-RXR (DBD mutation: RXRa K156A/R161A, NR concentration 90 nM)"
  PBM binding z-score: 1.97
- INPUT_SEQUENCE: "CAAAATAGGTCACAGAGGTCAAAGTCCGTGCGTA"
  ASSAY_SYSTEM: "RXRa DBDmut IVT, anti-RXR (DBD mutation: RXRa K156A/R161A, NR concentration 90 nM)"
  PBM binding z-score: 3.08
- INPUT_SEQUENCE: "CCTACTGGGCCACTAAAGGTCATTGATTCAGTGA"
  ASSAY_SYSTEM: "RXRa DBDmut IVT, anti-RXR (DBD mutation: RXRa K156A/R161A, NR concentration 90 nM)"
  PBM binding z-score: 0.757
- INPUT_SEQUENCE: "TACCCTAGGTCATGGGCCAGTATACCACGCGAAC"
  ASSAY_SYSTEM: "RXRa DBDmut IVT, anti-RXR (DBD mutation: RXRa K156A/R161A, NR concentration 90 nM)"
  PBM binding z-score: 0.55

Required: PBM binding z-score, one value per sequence below.
1. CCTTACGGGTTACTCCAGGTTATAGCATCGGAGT
2. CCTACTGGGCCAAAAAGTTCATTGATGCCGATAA
3. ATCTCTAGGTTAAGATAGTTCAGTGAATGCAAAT
4. TTACCAAGGTCAAAGGTCGTTGATGCACGCCTTG
5. CCTTAGGGGTCACGAGGTTATAGCACGACGAGCG
6. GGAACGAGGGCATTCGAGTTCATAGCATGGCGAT
7. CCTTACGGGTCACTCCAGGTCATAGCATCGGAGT
8. CAAACAAGGTCACGAAAGGTCAAAGTCGAATGAC

Result string:
-0.0626
1.51
0.534
3.96
4.14
3.99
1.08
4.12

Query string: Which PBM binding z-score is listed for `CAAACTAGGTCACCGAAAGGTCAAAGTCCGCATG` ?
Result string: 2.98

* * *

System: PPARg:RXRa (NR concentration 180 nM, RXRa partner concentration 90 nM)
Test: PBM binding z-score (relative to random genomic background probes); higher = stronger binding; sequences stand for … in GC…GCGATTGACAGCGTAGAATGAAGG
PARAMETER: PBM binding z-score
One number for each entry.

Use the examples below as a reference point.
- INPUT_SEQUENCE: "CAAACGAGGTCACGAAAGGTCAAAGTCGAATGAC"
  EXPERIMENTAL_RESULT: 10.1
- INPUT_SEQUENCE: "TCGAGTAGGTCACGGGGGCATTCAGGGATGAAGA"
  EXPERIMENTAL_RESULT: 9.41

Required: PBM binding z-score, one value per sequence below.
1. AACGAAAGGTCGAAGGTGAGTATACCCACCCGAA
2. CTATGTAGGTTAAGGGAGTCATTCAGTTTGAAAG
3. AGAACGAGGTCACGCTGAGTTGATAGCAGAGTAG
4. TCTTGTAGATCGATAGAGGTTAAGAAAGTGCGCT
5. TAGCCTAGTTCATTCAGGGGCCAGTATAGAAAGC
6. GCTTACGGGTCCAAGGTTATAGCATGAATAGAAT
7. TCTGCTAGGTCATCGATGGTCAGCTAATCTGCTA
8. CAAACGAGGTCACCGGAAGGTCAAAGTCCGCATG

Result string:
1. 4.7
2. 4.76
3. 9.52
4. -0.159
5. 0.203
6. 1.97
7. 1.74
8. 9.26

Required: PBM binding z-score, one value per sequence below.
1. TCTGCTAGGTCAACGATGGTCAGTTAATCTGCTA
2. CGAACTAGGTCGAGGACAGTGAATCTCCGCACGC
3. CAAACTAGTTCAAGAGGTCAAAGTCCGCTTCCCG
4. TAGCCTAGGTCACATCGGGCCAGTATACGCTATA

Result string:
1: 2.14; 2: 2.03; 3: 3.84; 4: 2.64
